System: NCI-H522
assayOverview: relative viability (nuclei count vs DMSO), 5 days (fraction); higher = more cells survive
cond: first compound 0.08 µM

molecule	testSystem	relative viability
O=c1[nH]c2ccccc2n1C1CCN(CCCC(c2ccc(F)cc2)c2ccc(F)cc2)CC1 [Pimozide] + O=C(c1cc(Cc2n[nH]c(=O)c3ccccc23)ccc1F)N1CCN(C(=O)C2CC2)CC1 [Olaparib] (partner 8 µM)	NCI-H522	0.569
O=c1[nH]c2ccccc2n1C1CCN(CCCC(c2ccc(F)cc2)c2ccc(F)cc2)CC1 [Pimozide] + CCNC(=O)c1noc(-c2cc(C(C)C)c(O)cc2O)c1-c1ccc(CN2CCOCC2)cc1 [Luminespib] (partner 0.01 µM)	NCI-H522	1.01

Where these numbers come from: the supplement of paper PMC10307832
